- SYSTEM_UNDER_TEST: T1, TIM-3 (T cell immunoglobulin and mucin-domain containing-3) (human, UniProt Q8TDQ0 22-200, limits assumed)
- T1 construct: also called TIMD-3; HAVCR2
- T1 sequence (looked up): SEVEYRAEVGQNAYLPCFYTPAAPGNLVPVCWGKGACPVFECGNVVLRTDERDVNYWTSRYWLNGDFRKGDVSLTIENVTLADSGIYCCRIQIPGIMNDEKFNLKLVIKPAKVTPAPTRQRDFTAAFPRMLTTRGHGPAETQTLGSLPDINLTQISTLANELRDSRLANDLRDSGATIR
- TEST_NAME: Biacore, Fab on TIM-3

| BINDER | koff |
| --- | --- |
| Fab clone 2B10 (Fab, V domains shown, Llama-derived Fab from an immune library; the constant domains of the Fab are not; also called 2610; 21310) VH: QVQLQESGPGLVKPSQTLSLTCTVSGGSITTNRYLWTWIRQTPGKGLEWVGAIAYSGRTYYSPSLKSRTSISRDTSKNQFTLQLSSVTPEDTGVYYCAHFTGWGGYYWGQGTQVTVSS VL: QSALTQPPSVSGTLGKTVTISCAGTSSDIGGYNSVSWYQQLPGTAPKLLIYEVNKRASGIPDRFSGSKSGNTASLSISGLQSEDEADYYCASYRSANNVVFGGGTKLTVL | 1.85e-05 s⁻¹ |
| Fab clone 2A2 (Fab, V domains shown, Llama-derived Fab from an immune library; the constant domains of the Fab are not) VH: EVQVQESGGGLVQPGGSLRLSCAASGFTFSSYAMSWVRQAPGKGLEWVSDINSGGGSTVYTDSVKGRFTISRDNAKNTLYLQMNSLKPDDTAVYYCATGGSYYSYRLFDYWGQGTQVTVSS VL: DIQMTQSPSSVIVSAGEKVTINCKSSQSVLDSSNQKNYLAWYQQRLGQSPRLLIYWASTRESGVPDRFSGSGSTTDFTLTISSFQPEDAAVYYCQQGYSVPVTFGQGTKVELKR | 4.41e-05 s⁻¹ |
| Fab clone 2C6 (Fab, V domains shown, Llama-derived Fab from an immune library; the constant domains of the Fab are not) VH: QVQLVESGGGLVQPGGSLRLSCAASGFAFSSYDMSWVRQAPGKGPEWVSTINSGGGSTSYADSVKGRFTISRDNAKNTVYLQMNSLKPEDTAVYYCAARSLYYTRVPMYDYWGQGTQVTVSK VL: QAVVTQEPSLSVSPGGTVTLTCGLSSGSVTTNNYPGWFQQTPGQAPRTLIYSTSSRHSGVPSRFSGSISGNKAALTITGAQPEDEADYYCALDIGSYTAVFGGGTHLTVL | 1.04e-05 s⁻¹ |
| Fab clone 2F8 (Fab, V domains shown, Llama-derived Fab from an immune library; the constant domains of the Fab are not) VH: EVQLVESGGGLVQPGGSLRLSCAASGFTFGSYDMSWVRQAPGKGPEWVSTISAGGGRTYYADSVKDRFTISRDNAKNTLYLQMNSLKPEDTAVYYCAKVVIDYWGQGTQVTVSS VL: DVVLTQTPGSLSVVPGESASISCKASQSLVHTDGKTYVYWLLQKPGQRPHLLIYQVSNHESGVPDRFTGSGSGTDFTLKISGVKAEDAGVYYCAQATYYPSFGSGTRLEIK | 8.53e-05 s⁻¹ |
| Fab clone 2E9 (Fab, V domains shown, Llama-derived Fab from an immune library; the constant domains of the Fab are not) VH: EVQLVESGGGLVQPGGSLRLSCAASGFTFDDYTMSWVRQVPGKGLEWISGISGNGGRTDYVEPIEGRFTISRDNAKNTLYLQMNSLKSEDTAVYYCAKTSPQSLDYWGQGTQVTVSS VL: DIVMTQSPSSVTASVGEKVTINCKSSQSVVSGSNQKSYLNWYQQRPGQPPRLLIYYASTQESGIPDRFSGSGSTTDFTLTISSVQPEDAAVYYCQQAYSAPYNFGSGTRLEIK | 6.64e-05 s⁻¹ |
